B1: OR4K15 (parent)
chain: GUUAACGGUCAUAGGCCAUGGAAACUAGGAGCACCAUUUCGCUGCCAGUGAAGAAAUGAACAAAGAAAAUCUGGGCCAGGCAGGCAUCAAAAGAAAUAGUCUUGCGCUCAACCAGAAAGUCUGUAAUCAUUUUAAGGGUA

Variants of: B1
Experiment: self-cleavage, relative activity (ratio to wild type); higher = more cleavage; in vitro, sequencing; the parent is a self-cleaving ribozyme
Assign class by self-cleavage: not lower than 1 means t; lower than 1 means f.

Some solved entries appear below for comparison.
-- ask Is it the case that A52G U102C has self-cleavage reaching or exceeding 1?
-- reply t

-- ask Check this variant for self-cleavage at or above 1: G15A A47G
-- reply t

-- ask Test whether the variant A22G A125G records self-cleavage of 1 or higher.
-- reply f

-- ask Determine whether this variant has self-cleavage no lower than 1: U70A A110U
-- reply f

Continuing:
-- ask Reported self-cleavage at or above 1? U39C A94C
-- reply t

-- ask Determine whether this variant has self-cleavage no lower than 1: A5U A116U
-- reply f

-- ask # bool: self-cleavage of C16A A89G >= 1
-- reply t

-- ask Hello, I need to know if G15C A86U has measured self-cleavage not below 1. Thanks!
-- reply t

-- ask Does the variant A96U A135G have recorded self-cleavage that is 1 or more?
-- reply t

-- ask # check: self-cleavage of A94G U127G is greater than or equal to 1
-- reply t

-- ask Could you tell me if the measured self-cleavage of U43C A126C reaches 1 or more?
-- reply t

-- ask Say whether U3G A51G shows self-cleavage of 1 or more.
-- reply t

-- ask Please tell me: is the variant U122C U131G at or over 1 in terms of self-cleavage?
-- reply f
